Molecular target: T1, human Insulin Receptor A (hIR-A) (human, UniProt P06213-2 28-1370)
T1 construct: Solubilised semi-purified receptor captured on SPA beads by antibody 83-7
T1 sequence (P06213 other isoform, or with tags, fused parts or gaps limits assumed): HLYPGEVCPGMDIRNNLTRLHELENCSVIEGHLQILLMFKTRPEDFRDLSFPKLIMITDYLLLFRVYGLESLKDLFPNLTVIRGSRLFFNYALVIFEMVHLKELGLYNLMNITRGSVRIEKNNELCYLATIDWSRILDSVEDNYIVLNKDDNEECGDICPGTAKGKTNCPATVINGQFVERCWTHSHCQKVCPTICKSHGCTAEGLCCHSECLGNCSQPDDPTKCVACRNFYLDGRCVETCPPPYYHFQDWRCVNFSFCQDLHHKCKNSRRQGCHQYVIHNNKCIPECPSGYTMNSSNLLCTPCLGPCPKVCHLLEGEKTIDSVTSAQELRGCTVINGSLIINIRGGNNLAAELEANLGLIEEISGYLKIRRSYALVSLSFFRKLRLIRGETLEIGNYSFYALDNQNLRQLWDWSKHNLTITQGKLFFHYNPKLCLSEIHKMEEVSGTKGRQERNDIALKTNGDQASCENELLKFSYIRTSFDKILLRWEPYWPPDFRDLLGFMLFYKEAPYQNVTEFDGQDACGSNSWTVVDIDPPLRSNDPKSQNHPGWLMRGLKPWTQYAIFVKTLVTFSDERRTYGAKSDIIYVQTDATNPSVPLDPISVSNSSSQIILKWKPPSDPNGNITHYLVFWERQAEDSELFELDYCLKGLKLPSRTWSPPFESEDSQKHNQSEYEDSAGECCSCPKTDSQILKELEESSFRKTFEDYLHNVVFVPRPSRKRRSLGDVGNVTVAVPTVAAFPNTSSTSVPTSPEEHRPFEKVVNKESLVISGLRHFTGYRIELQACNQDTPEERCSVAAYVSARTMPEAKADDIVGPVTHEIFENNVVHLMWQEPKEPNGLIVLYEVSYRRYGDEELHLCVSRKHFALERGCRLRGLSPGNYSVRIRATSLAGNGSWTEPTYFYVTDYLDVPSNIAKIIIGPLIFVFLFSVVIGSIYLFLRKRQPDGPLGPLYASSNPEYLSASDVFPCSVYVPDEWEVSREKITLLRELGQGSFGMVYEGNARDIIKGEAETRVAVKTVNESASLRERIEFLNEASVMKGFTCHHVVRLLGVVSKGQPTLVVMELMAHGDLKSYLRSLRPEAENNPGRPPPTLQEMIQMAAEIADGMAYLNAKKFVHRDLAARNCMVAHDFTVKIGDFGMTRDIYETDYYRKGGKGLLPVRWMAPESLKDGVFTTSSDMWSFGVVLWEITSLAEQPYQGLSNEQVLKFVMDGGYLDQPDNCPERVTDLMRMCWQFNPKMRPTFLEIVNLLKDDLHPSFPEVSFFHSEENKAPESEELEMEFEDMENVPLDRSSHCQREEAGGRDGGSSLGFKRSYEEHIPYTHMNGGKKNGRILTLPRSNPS
Test: SPA, relative hIR-A affinity at 20 mM vs 0 mM glucose, 1.5% HSA
measure: HIR glucose factor, 20 mM glucose 1.5% HSA (fold)
Your answer is read as fold, so omit the unit and give the number.

Here's what some known entries look like.
Compound of Example 149 (ligand, not fully specified; diboron group from building block of example 15; sites only in drawing) chain 1: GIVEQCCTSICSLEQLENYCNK chain 2: FVNQHLCGSHLVEALYLVCGERGFHYPK ... 2.8
Compound of Example 141 (ligand, diboron group from building block of example 2; sites only in drawing) chain 1: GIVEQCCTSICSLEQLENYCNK chain 2: FVNQHLCGSHLVEALYLVCGERGFHYPK ... 2.3
Compound of Example 166 (ligand, not fully specified; diboron group from building block of example 20; sites only in drawing) chain 1: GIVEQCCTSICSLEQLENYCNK chain 2: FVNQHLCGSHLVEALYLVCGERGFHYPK ... 5.9

Let us move to another entry and its HIR glucose factor, 20 mM glucose 1.5% HSA.
Record Compound of Example 150 (ligand, not fully specified; diboron group from building block of example 18; sites only in drawing) chain 1: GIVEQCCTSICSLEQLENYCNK chain 2: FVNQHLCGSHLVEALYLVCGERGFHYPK . Reported HIR glucose factor, 20 mM glucose 1.5% HSA: 1.3
